assay: in vivo; parameters: species or system male Japanese native strain white rabbits; conditions: blood; Two Hours after administration; rabbit, oral, 20 mg/kg suspended in 5% gum arabic; bioassay (Bacillus luteus S1101)
experimental_endpoint: concentration at 2 h (ng/mL)
Entry rule: numbers only, all in ng/mL.

Task: Field request: concentration at 2 h | item: `N#CCSC1=C(C(=O)[O-])N2C(=O)[C@@H](NC(=O)/C(=N\O)c3csc(N)n3)[C@H]2SC1.[Na+]`
Output: 4000
